- Tested on: human cell lines
- PROCEDURE SUMMARY: MTT assay (EC50/CC50 and MNTD90)
- Assay type: cell-based
- CONDITION PARAMETERS: Maximum Non-Toxic Dose, read-out: MNTD/EC90
RECORDED METRIC: EC90
Provide a numeric answer, followed by its unit.

Recorded EC90, per entry:
[[record]]
smiles_code = "COc1cccc(-c2nc3sccn3c2-c2ccnc(NCCNC(=O)Nc3cccc(C(F)(F)F)c3)n2)c1"
experimental_target = "human cell lines"
val = "29.5 µM"

[[record]]
smiles_code = "O=C(NCCNc1nccc(-c2c(-c3cccc(O)c3)nc3sccn23)n1)Nc1cc(C(F)(F)F)cc(C(F)(F)F)c1"
experimental_target = "human cell lines"
val = "36.1 µM"


API: the following record is the query input.
# EC90 of O=C(NCCNc1nccc(-c2c(-c3ccc(F)cc3)nc3sccn23)n1)c1cc(C(F)(F)F)cc(C(F)(F)F)c1 = 90.9 µM

The origin of these recorded values is paper PMC9494960.
